study.system: HLA-A*6802 (human)
procedure.text: competitive inhibition assay, purified HLA
experimental.context: remark: other sources report otherwise
parameter: IC50 (µM)

binder: VVLGVVFGI [Her2/neu.665]
parameter: IC50
value: 2
